assay explanation: chemical genetic growth profiling, strain panel (AID 1159580);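 further: tested at 20 µM; growth read once vehicle control cultures reached saturation at 30 °C; 1 = growth at the plate median or of vehicle wells; lower values mean less growth of the strain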
condition context: S. cerevisiae deletion strains, growth OD, locus YNL307C, strain MCK1, hits give low values
The whole screen tested about 5,500 compounds, of which about 2,000 (36%) were called active. Inconclusive results (about 18%) are left out. The list shows a part of the results.
observable: normalized growth

[
  {
    "compound": "c1ccc2c(c1)cc1ccc3cccc4ccc2c1c34",
    "observed measurement": "0.993 (inactive)"
  },
  {
    "compound": "CC(=O)Nc1ccc(S(=O)(=O)Nc2ccc([N+](=O)[O-])cc2)cc1",
    "observed measurement": "1 (inactive)"
  },
  {
    "compound": "C=C(CC)C(=O)c1ccc(OCC(=O)O)c(Cl)c1Cl",
    "observed measurement": "0.98 (inactive)"
  },
  {
    "compound": "CC(=O)c1c(O)c(C)c(O)c2c1OC1=CC(=O)C(C(C)=O)C(=O)C12C (configuration not stated)",
    "observed measurement": "0.971 (inactive)"
  },
  {
    "compound": "C[n+]1cccc(C(=O)[O-])c1",
    "observed measurement": "1 (inactive)"
  },
  {
    "compound": "C=C(C)[C@H]1CC=C(C(=O)O)CC1",
    "observed measurement": "0.912 (inactive)"
  },
  {
    "compound": "CS(=O)(=O)CCCCN=C=S",
    "observed measurement": "0.575 (active)"
  },
  {
    "compound": "NCC(CC(=O)O)c1ccc(Cl)s1 (configuration not stated)",
    "observed measurement": "0.954 (inactive)"
  },
  {
    "compound": "CCCCC1=NC2(CCCC2)C(=O)N1Cc1ccc(-c2ccccc2-c2nn[nH]n2)cc1",
    "observed measurement": "0.99 (inactive)"
  },
  {
    "compound": "C1CNCCN1",
    "observed measurement": "0.996 (inactive)"
  },
  {
    "compound": "Cc1ccc(/C(=C\\CN2CCCC2)c2ccccn2)cc1",
    "observed measurement": "1.01 (inactive)"
  },
  {
    "compound": "O[N+]1=CC=CCC1=S.On1ccccc1=S.[Zn]",
    "observed measurement": "0.0674 (active)"
  },
  {
    "compound": "O=C(OC1Cc2c(O)cc(O)cc2OC1c1cc(O)c(O)c(O)c1-c1c(C2Oc3cc(O)cc(O)c3CC2OC(=O)c2cc(O)c(O)c(O)c2)cc(O)c(O)c1O)c1cc(O)c(O)c(O)c1 (configuration not stated)",
    "observed measurement": "0.979 (inactive)"
  },
  {
    "compound": "COC(=O)C[C@H]1C(C)(C)C(=O)[C@@H]2CC3=C4CC(=O)O[C@@H](c5ccoc5)[C@]4(C)CCC3[C@@]1(C)C2=O (some centres not stated)",
    "observed measurement": "1.01 (inactive)"
  },
  {
    "compound": "COC(C)(C)CCC[C@H](C)C/C=C/C(C)=C/C(=O)OC(C)C",
    "observed measurement": "1.04 (inactive)"
  },
  {
    "compound": "CN[C@H](CC(=O)O)C(=O)O",
    "observed measurement": "0.976 (inactive)"
  },
  {
    "compound": "O=C1O[C@H](C(O)CO)C(O)=C1O (some centres not stated)",
    "observed measurement": "0.965 (inactive)"
  },
  {
    "compound": "COc1cc2c(c(OC)c1OC)-c1ccc(O)c(=O)cc1[C@@H](NC(C)=O)CC2",
    "observed measurement": "1.01 (inactive)"
  },
  {
    "compound": "O=C1C=CC2=C3c4cc(O)c(O)cc4C[C@@]3(O)COC2=C1",
    "observed measurement": "1 (inactive)"
  },
  {
    "compound": "O=C(O[C@@H]1Cc2c(O)cc(O)cc2O[C@@H]1c1cc(O)c(O)c(O)c1-c1c([C@H]2Oc3cc(O)cc(O)c3C[C@H]2O)cc(O)c(O)c1O)c1cc(O)c(O)c(O)c1",
    "observed measurement": "0.831 (active)"
  },
  {
    "compound": "Nc1ccc(S(=O)(=O)Nc2ccccn2)cc1",
    "observed measurement": "0.997 (inactive)"
  },
  {
    "compound": "CC(=O)O[C@H]1C[C@@H](OC(C)=O)C(C)(C)C2C[C@@H](OC(C)=O)[C@@]3(C)C4=CC(=O)O[C@@H](c5ccoc5)[C@]4(C)CCC3[C@]21C (some centres not stated)",
    "observed measurement": "0.995 (inactive)"
  }
]
